Values were extracted from patent US6410571B1.

System: HCMV wild-type
Assay: HCMV yield assay
Type: cell-based, human cytomegalovirus
Details: Human betaherpesvirus 5, Fibroblast; human foreskin fibroblasts; read-out: IC50 (ug/ml) HCMV
Entries and their measured IC50 follow.
Quantity kind: IC50

Structure notation	Quantity kind	Result
COc1cc(OC)c(NC(=S)Nc2ccc(NC(=O)c3ccco3)c3ccccc23)cc1Cl	IC50	8 µg/mL
COc1cc(OC)c(NC(=S)Nc2ccc(NC(=O)c3ccco3)c(C(=O)Nc3ccccc3)c2)cc1Cl	IC50	> 10 µg/mL
COc1cc(OC)c(NC(=S)Nc2cc(C)c(NC(=O)c3ccco3)cc2Cl)cc1Cl	IC50	> 10 µg/mL
COc1cc(OC)c(NC(=S)Nc2ccc(NC(=O)c3ccco3)cc2Cl)cc1Cl	IC50	0.4 µg/mL
COc1cc(OC)c(NC(=S)Nc2ccc(NC(=O)c3ccco3)c(Cl)c2)cc1Cl	IC50	5 µg/mL
